- Study system: Wee1 (Homo sapiens, UniProt P30291)
- Construct: endogenous in cells; host or cells: HeLa cells
- Sequence (P30291 whole entry): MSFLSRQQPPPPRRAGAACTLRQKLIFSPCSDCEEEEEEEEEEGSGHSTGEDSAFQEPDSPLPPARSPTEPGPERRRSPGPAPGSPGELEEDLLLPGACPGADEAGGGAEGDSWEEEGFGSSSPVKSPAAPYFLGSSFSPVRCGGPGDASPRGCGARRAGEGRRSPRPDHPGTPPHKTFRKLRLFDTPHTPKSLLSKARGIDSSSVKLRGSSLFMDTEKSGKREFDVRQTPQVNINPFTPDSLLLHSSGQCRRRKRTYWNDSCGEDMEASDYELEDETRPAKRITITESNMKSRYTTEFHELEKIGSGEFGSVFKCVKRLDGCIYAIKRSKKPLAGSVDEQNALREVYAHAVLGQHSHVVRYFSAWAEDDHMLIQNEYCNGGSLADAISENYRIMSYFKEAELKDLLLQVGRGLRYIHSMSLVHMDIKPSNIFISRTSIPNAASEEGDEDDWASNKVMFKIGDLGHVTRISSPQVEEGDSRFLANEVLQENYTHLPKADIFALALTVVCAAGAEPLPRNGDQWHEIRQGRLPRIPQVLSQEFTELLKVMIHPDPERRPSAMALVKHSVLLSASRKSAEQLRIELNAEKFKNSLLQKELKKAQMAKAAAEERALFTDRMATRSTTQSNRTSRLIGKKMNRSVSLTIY
- Procedure text: Cell assay for Wee1 inhibitory activity (cell-based ELISA of cdc2 phosphorylation)
- Reported conditions: aphidicolin-synchronized Hela cells in G2-M; phospho-cdc2(Tyr15) sandwich ELISA; read-out: pIC50, cell assay for Wee1 inhibitory activity (converted)
Counter-ions that a name gives are not always drawn.
Listing: IC50 of selected compounds
Value type: IC50

- Compound: "CCN(CC)CCOc1ccc(Nc2ncc(-c3cncnc3)c(Nc3ccccc3OC)n2)cc1"
  Result: "≤ 10 µM"
- Compound: "Cc1ncc(-c2cccc(Nc3nc(Nc4ccc(Cn5cncn5)cc4)ncc3-c3cncnc3)c2)s1"
  Result: "≤ 10 µM"
- Compound: "CCN(CC)CCOc1ccc(Nc2ncc(-c3ccc4[nH]ncc4c3)c(Nc3ccccc3OC)n2)cc1"
  Result: "≤ 10 µM"
- Compound: "CCN(CC)CCOC(=O)Nc1ccc(Nc2ncc(-c3cncnc3)c(Nc3ccccc3OC)n2)cc1"
  Result: "≤ 10 µM"
- Compound: "CCN(CC)CCOc1ccc(Nc2ncc(-c3cncnc3)c(Nc3cccc(C#N)c3)n2)cc1"
  Result: "≤ 10 µM"
- Compound: "COc1ccccc1Nc1nc(Nc2ccc(Cn3cncn3)cc2)ncc1-c1cncnc1"
  Result: "≤ 10 µM"
- Compound: "CCN(CC)CCOc1ccc(Nc2ncc(-c3cn[nH]c3)c(Nc3ccccc3OC)n2)cc1"
  Result: "≤ 10 µM"
- Compound: "COc1ccccc1Nc1nc(Nc2cccc(OCCN(C)C)c2)ncc1-c1cn[nH]c1 [Example 99, hydrochloride]"
  Result: "≤ 10 µM"
